parameter.measured: melting point

// below: answered compounds
>>> reported_measurement("COc1ccc([C@@H]2Sc3cc(Cl)ccc3N(CCCCl)C(=O)[C@@H]2O)cc1 (relative stereo)")
"103 to 106 °C"
>>> reported_measurement("COc1cc(OC)c2c(=O)c3c(Cl)ccc([N+](=O)[O-])c3[nH]c2c1")
"291 to 294 °C"

Prompt: What value of melting point has been reported for the following compound? CC(C)c1ccc(N(Cc2cn[nH]c2)C(=O)C2CCCc3c(O)cccc32)cc1 (centres undefined)
Completion: 247 °C

Prompt: What value of melting point has been reported for the following compound? CC(=O)Nc1cccc(OCCCN2CCC(c3noc4cc(F)ccc34)CC2)c1
Completion: 184 to 186 °C

---

Listed here: items and their measured melting point.

>>> reported_measurement("CON=C(C(=O)O)c1cccc(OC)c1")
"97 to 98 °C"
>>> reported_measurement("O=c1[nH]ncc2[nH]c(-c3ccc(OC(F)F)c(OC4CC4)c3)c(C3CC3)c12")
"248 to 249 °C"
>>> reported_measurement("Cc1cc(-c2ncn3c(C(F)(F)F)cc(-c4ccc(C(F)(F)F)c(C)c4)nc23)ccn1")
"243 °C"
>>> reported_measurement("CCOC(=O)C1=C(N)NC2=C(C(=O)CCC2)C1c1cccc(Br)c1 (stereo not given)")
"255 °C"

Here's the next entry for you.
Prompt: What value of melting point has been reported for the following molecule? NC(=O)c1cnn2c1NCC=C2c1cccc(C(F)(F)F)c1
Completion: 157 to 160 °C

---

Listed here: items and their measured melting point.

// below: answered molecules
>>> reported_measurement("O=[N+]([O-])c1ccc(C(O)c2ncco2)c(Cl)c1 (stereo unspecified)")
"158 to 160 °C"
>>> reported_measurement("CCN(CC)CC(C)N1c2ccccc2Sc2ccc(C(N)=S)cc21 (stereo unspecified)")
"180 °C"
>>> reported_measurement("Cc1nc2ccnn2c2c1CCN2Cc1ccccc1")
"130 °C"
>>> reported_measurement("CSc1ccc(C(=O)Nc2ccccc2)cc1N")
"143 to 145 °C"
>>> reported_measurement("Cc1nnc2c3[nH]cnc3n(Cc3ccccc3)c(=O)n12")
"309 to 310 °C"

Prompt: What value of melting point has been reported for the following molecule? NNC(=S)NN=Cc1ccco1
Completion: 186 to 187 °C

Prompt: What value of melting point has been reported for the following molecule? CCOC(=O)c1nn(-c2ccc(Cl)cc2Cl)c(-c2ccc(Cl)cc2)c1C#N
Completion: 112 °C

Prompt: What value of melting point has been reported for the following molecule? COC(=O)c1cc(Br)n2c1CN(C(=O)OC(C)(C)C)CC2
Completion: 109 °C

Prompt: What value of melting point has been reported for the following molecule? Cc1cc2c(cc1Br)nc1n2CCC1
Completion: 167 to 170 °C

Prompt: What value of melting point has been reported for the following molecule? COc1cccc2c1nc(C(F)F)n2-c1nc(N2CCOCC2)nc2c1ncn2-c1cccnc1
Completion: 206 to 209 °C

Prompt: What value of melting point has been reported for the following molecule? COc1nc2ccccc2cc1NC(=O)N1CCN(c2cccc(OC(C)C)c2)CC1
Completion: 111 to 113 °C

Prompt: What value of melting point has been reported for the following molecule? CC(C)(C)CC(=O)Nc1ccc2ncnc(N)c2c1
Completion: 273 to 274 °C

Prompt: What value of melting point has been reported for the following molecule? CN(c1ccc(Cl)cc1[N+](=O)[O-])S(=O)(=O)C=Cc1ccccc1
Completion: 162 to 164 °C

Prompt: What value of melting point has been reported for the following molecule? CCc1ccc(-c2c3ccccc3c(-c3ccc(CC)cc3)c3cc(Cl)ccc23)cc1
Completion: 214 to 216 °C

Prompt: What value of melting point has been reported for the following molecule? Cc1cccc(-n2c(-c3sc(Nc4ccc(Cl)cc4)nc3C)nc3ccccc3c2=O)c1
Completion: 236 to 238 °C

---

Listed here: items and their measured melting point.

// below: answered molecules
>>> reported_measurement("C#CCNC(=O)c1cccc(F)c1N")
"89 to 91 °C"
>>> reported_measurement("CN(Cc1cc2c(=O)c(C(=O)NCc3ccc(Cl)cc3)cn(C)c2s1)C[C@@H](O)c1ccc([N+](=O)[O-])cc1")
"181 to 183 °C"
>>> reported_measurement("CN1CNC(=S)N(c2ccccc2)C1")
"175 to 176 °C"
>>> reported_measurement("COc1ccc([C@H]2[C@@H](c3ccccc3)C2(Cl)Cl)cc1 (relative stereo)")
"59 to 60 °C"

Here's the next entry for you.
Prompt: What value of melting point has been reported for the following molecule? CC(C)(C)c1cc(C(=O)Nc2ccccc2NC(=O)N(Cc2ccccc2)Cc2ccccc2)cc(C(C)(C)C)c1O
Completion: 187 to 189 °C

---

parameter.measured: melting point

>>> reported_measurement("Cc1cccc(N=C(N)N(C)C)c1N1CCOCC1")
"100 °C"
>>> reported_measurement("CSc1cnn2c(Nc3ccc(F)c(Cl)c3)cc(Cl)nc12")
"156 to 158 °C"
>>> reported_measurement("CCCCS(=O)(=O)NCc1ccc(CCN2CCN(c3ccncc3)CC2)cc1")
"154 to 156 °C"
>>> reported_measurement("COCCc1sc2ncnc(N)c2c1-c1ccc(NC(=O)c2ccccc2)cc1")
"200 to 202 °C"

Here's the next entry for you.
Prompt: What value of melting point has been reported for the following compound? CCCCCCCN(CCCCCSc1nc(-c2ccccc2)c(-c2ccccc2)[nH]1)C(=O)NCCC
Completion: 78 to 80 °C

---

parameter.measured: melting point

>>> reported_measurement("COCC(=O)O[C@@H]1[C@@H](c2ccccc2)Nc2c(ccn3c(C)c(C)nc23)[C@@H]1OC")
"73 to 75 °C"
>>> reported_measurement("O=C(NCCc1ccccc1)Nc1ccc2ncc(Br)cc2n1")
"245 to 246 °C"
>>> reported_measurement("Cn1cc(-c2cccc([N+](=O)[O-])c2)c(=O)c(-c2cccc(C(F)(F)F)c2)c1")
"209 to 211 °C"
>>> reported_measurement("CC[C@H](C1CC1)n1cc(Cl)nc(N2CCc3cc(OC)cc(Br)c32)c1=O")
"138 to 140 °C"

Here's the next entry for you.
Prompt: What value of melting point has been reported for the following compound? COc1cc2c(cc1OC)C(c1ccc(Cl)cc1)=NN=C(C)C2
Completion: 188 to 198 °C

---

Listed here: items and their measured melting point.

// below: answered molecules
>>> reported_measurement("O=C(O)C(CCCCCc1ccc(Cl)cc1)S(=O)(=O)c1cccc(Cl)c1 (stereo not given)")
"104 to 106 °C"
>>> reported_measurement("CCOc1cnccc1-c1nc2n(C3CCCC3)[nH]c(CC)c-2c(=O)n1")
"179 to 180 °C"
>>> reported_measurement("CCOC(=O)CC[C@H](NC(=O)c1csc(CCCc2cc3c(=O)[nH]c(N)nc3[nH]2)c1)C(=O)OCC")
"81 to 82 °C"
>>> reported_measurement("CSc1cc(SC)c(N)c(SC)c1N")
"114 to 116 °C"
>>> reported_measurement("CN(C)CCCn1c(-c2ccccc2)cc2ccccc21")
"52 °C"
>>> reported_measurement("O=C1c2ccccc2COc2cc(Cl)ccc21")
"105 to 106 °C"

Prompt: What value of melting point has been reported for the following molecule? CCOC(=O)c1ncc2c(c1COC)c1c(Cc3ccccc3Cl)cccc1n2S(=O)(=O)c1ccc(C)cc1
Completion: 140 to 142 °C

Prompt: What value of melting point has been reported for the following molecule? COc1ccc(-c2c(NC(=O)Nc3ccc(F)cc3F)c(=O)n(C)c3ccc(C)cc23)cc1OC
Completion: 231 to 233 °C

Prompt: What value of melting point has been reported for the following molecule? C=CCN1CCc2ccc(C(=O)CCC(=O)N3CCC(c4ccc(Cl)cc4)CC3)cc2CC1
Completion: 136 to 137 °C

Prompt: What value of melting point has been reported for the following molecule? COc1ccc(CC#N)cc1C(=O)NCc1ccc(C(F)(F)F)cc1
Completion: 124 to 125 °C

---

parameter.measured: melting point

// below: answered compounds
>>> reported_measurement("OCCN(CCO)Cc1ccc(-c2cc3ncnc(Nc4ccc5[nH]ccc5c4)c3s2)cc1")
"110 to 127 °C"
>>> reported_measurement("CS(C)=Nc1nccnc1Cl")
"106 to 108 °C"
>>> reported_measurement("O=C(CCl)Nc1ccc(C(O)(C(F)(F)F)C(F)(F)F)cc1O")
"218 to 219 °C"

Here's the next entry for you.
Prompt: What value of melting point has been reported for the following compound? CC#CCOc1ccc(S(=O)C(C(=O)NO)c2ccccc2OC)cc1 (stereo not given)
Completion: 168 °C

---

Listed here: items and their measured melting point.

// below: answered compounds
>>> reported_measurement("Cc1ccccc1N1CCN(Cc2n[nH]c3ccccc23)CC1")
"135 to 136 °C"
>>> reported_measurement("CC(c1cc2cc(F)ccc2s1)N(O)C(N)=O (stereo unspecified)")
"149 to 153 °C"
>>> reported_measurement("CCOC(=O)CSc1ccc([N+](=O)[O-])cc1C1C(C(=O)OC)=C(C)N(C)C(C)=C1C(=O)OC")
"118 °C"
>>> reported_measurement("CC1CC(=O)NN=C1c1ccc2[nH]c(CCCN3C(=O)c4ccccc4C3=O)nc2c1 (stereo unspecified)")
"260 to 261 °C"
>>> reported_measurement("CNC(=O)N1CC(Oc2ccc(F)cc2Cl)C1")
"139 to 141 °C"

Here's the next entry for you.
Prompt: What value of melting point has been reported for the following compound? Nc1ccc2ccc(Cl)cc2n1
Completion: 175 °C
